src = PubChem BioAssay AID1159580

Parameter normalized growth: see the listing below.
assay: chemical genetic growth profiling, strain panel (AID 1159580);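 further: tested at 20 µM; growth read once vehicle control cultures reached saturation at 30 °C; 1 = growth at the plate median or of vehicle wells; lower values mean less growth of the strain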; details: S. cerevisiae deletion strains, growth OD, locus YHR094C, strain hxt1, stronger effect = lower value
In all, about 5,500 compounds went through this assay and about 2,000 (36%) were called active. Roughly 18% stayed inconclusive and do not appear here. The list shows a part of the results.
Field format: numeric only.

Field: example entries. Status: answers known.
# normalized growth (compound: CCCc1ncc(C[n+]2ccccc2C)c(N)n1 ) is 0.994

Looking up CC(C)[C@@H]1CC[C@@H](C)CC1=O , I found its normalized growth recorded as 1.02

---
Form: compound = C=C[C@H]1CN2CC[C@H]1C[C@H]2[C@H](O)c1ccnc2ccccc12 ; normalized growth = 0.973

// field: normalized growth; key: Cn1c(=O)[nH]c2nc[nH]c2c1=O ; value = 0.993

normalized growth reading for COC(=O)C[C@H]1C(C)(C)[C@@H](OC(C)=O)[C@@H]2CC3=C4CC(=O)O[C@@H](c5ccoc5)[C@]4(C)CCC3[C@@]1(C)C2=O (stereo not given in full) : 1
